tested.system: T1, BMP-12 (UniProt Q7Z4P5 322-450, limits assumed)
T1 construct: also called BMP12/GDF7
T1 sequence (looked up): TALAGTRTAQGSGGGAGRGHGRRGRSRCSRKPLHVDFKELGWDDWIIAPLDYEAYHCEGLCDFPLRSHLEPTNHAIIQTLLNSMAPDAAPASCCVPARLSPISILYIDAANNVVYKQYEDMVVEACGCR
procedure.summary: peptide resin, filter plate; load 5: 25 mM HEPES pH 7.0
No end group written: not given here.
Assign 100 mM HAc elution K to each entry below.
Respond with the number and no other words.

So for Ac-LYVSDVGWNDWIVK (not fully specified (residue 3); printed as Ac-LYV**SDVGWNDWIVK; also: ** after V3 not explained) [BMP2 C-trunc_2 peptide 746] , the logged 100 mM HAc elution K turned out to be 1

Recorded 100 mM HAc elution K (binder Ac-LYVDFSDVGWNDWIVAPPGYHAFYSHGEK [BMP2 Full peptide 747] ): 1

Record Ac-VAPPGYHAFYSHGEK [BMP2 N-trunc_2 peptide 745] . Reported 100 mM HAc elution K: 0

Short answer for Ac-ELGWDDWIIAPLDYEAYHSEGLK [BMP12 N-trun_1S peptide 749] : 100 mM HAc elution K was 1

Lookup result for Ac-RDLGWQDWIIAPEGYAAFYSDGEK [BMP5 peptide 748] ; measured 100 mM HAc elution K: 2

// 100 mM HAc elution K value for Ac-SDVGWNDWIVAPPGYHAFYCHGEK [BMP2 N-trun peptide 750] : 0

Record summary for Ac-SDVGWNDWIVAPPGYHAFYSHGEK [BMP2 N-trun 1S peptide 751] : reported 100 mM HAc elution K = 0
